# method-description: TLR3 IRF3 reporter activation blockers – cell-based, poly I:C stimulus, luciferase, 10K MLSCN set, primary screen (AID 602277)
# assay-conditions: HEK293-TLR3 RL24 IRF3 luciferase reporter, at 10 µM, hits give high values
property: inhibition (%)
Numbers only, in %.

Kindly give each listed record's inhibition.
1. CCCCSc1nc2c(cnn2-c2ccc(Cl)cc2)c(=O)[nH]1
2. Cc1ccc(C)c(N(CC(=O)NC2CCCC2)C(=O)CCCC(=O)Nc2ccccn2)c1

A:
[16.6, 27.2]

Kindly give each listed record's inhibition.
1. CCOc1ccc2nc(SCC#N)c(C#N)cc2c1
2. CCOc1cc(N2CCOCC2)c(OCC)cc1NC(=O)COC(=O)CCc1c[nH]c2ccccc12
3. COCCNC(=O)CN1CCC(NC(=O)Nc2ccc(C(F)(F)F)cc2)CC1

A:
[-93.9, 20.2, 3.51]
